The entries below come with measured internalization Top (MFI), A375 cells values attached.
Target: T1, human interleukin 13 receptor subunit alpha 2 (IL-13RA2) (human, UniProt Q14627 27-380)
T1 sequence (looked up): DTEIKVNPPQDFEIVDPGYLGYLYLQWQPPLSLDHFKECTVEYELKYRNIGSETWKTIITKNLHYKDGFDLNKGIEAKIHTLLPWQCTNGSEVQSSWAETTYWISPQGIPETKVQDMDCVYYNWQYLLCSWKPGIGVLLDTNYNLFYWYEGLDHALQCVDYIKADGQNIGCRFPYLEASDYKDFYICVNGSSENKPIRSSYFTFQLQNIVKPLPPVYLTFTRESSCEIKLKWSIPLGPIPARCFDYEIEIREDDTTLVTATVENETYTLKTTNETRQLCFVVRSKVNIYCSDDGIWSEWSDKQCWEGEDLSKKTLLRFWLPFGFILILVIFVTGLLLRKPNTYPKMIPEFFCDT
Assay: cell-based or functional assay
Reply numerically in MFI, unit not repeated.

Examples with their reported internalization Top (MFI), A375 cells follow.
{"columns": ["Binder", "internalization Top (MFI), A375 cells"],
 "data": [
  ["xi62F6A8 hIgG1 (antibody, V domains shown) VH: QVQIQQSGAELARPGASVMLSCKASGYTFTDYWMQWIKQRPGQGLEGIGAIYPGDGDTAYNQKFRGKATLTADKSSSTAYMQLNSLASEDSAVYFCARGATLLRPFPFWGQGTLVTVSA VL: DIVMTQSHKFMSTSVGDRVSITCKASQDVSTAVAWYQQKPGQSPKLLIYSASYRYAGVPDRFTGSGSGTDFTFTISSVQAEDLAVYSCQQHYSIPPTFGGGTKLEIK", 4530],
  ["xi51G2B3 hIgG1 (antibody, V domains shown) VH: QVQLQQSGPELVKPGASVKISCKASGYAFSDSWMNWVKQRPGQGLEWIGRIYPGDGDTNYNGKFKGKATLTADKSSNTAYMQLSSLTSVDSAVYFCARSWNGSPWFPYWGQGTLVTVSA VL: DVLMTQTPLSLPVSLGDQASISCRSSQTIAHRNGNTYLEWYLQKPGQSPKLLLYKVSNRFSGVPDRFSGSGSGTDFTLKISRVEAEDLGVYYCFQGSHVTWTFGGGTKLEIK", 6380]
]}

Now examine the next entry.
Query: I am curious: what internalization Top (MFI), A375 cells value has been reported for xi74B5E4 hIgG1 (antibody, V domains shown) VH: EVKLVESGGGLVKPGGSLRLSCAASGFTFSTYGMSWVRQTPEKRLEWVATISGGGSYTYYPDSVKGRFTISRDNAKNNLYLQMSSLRSEDTALYYCARRDLRSAMDYWGQGTSVTVSS VL: DIVMTQSQKFMSTSVGDRVSVTCKASQNVDINVAWYQQKPGQSPKALIYSASYRYSGVPDRFTGSGSGTDFTLTISNVQSEDLAEYFCQQYNTYPLTFGGGTKLEIK ?
Response: 5170

These entries and their values trace back to patent US20250163164A1.
